target: dLManII (Drosophila melanogaster lysosomal α-mannosidase II) (Drosophila melanogaster, UniProt Q9VKV1)
Sequence (Q9VKV1 25-1080): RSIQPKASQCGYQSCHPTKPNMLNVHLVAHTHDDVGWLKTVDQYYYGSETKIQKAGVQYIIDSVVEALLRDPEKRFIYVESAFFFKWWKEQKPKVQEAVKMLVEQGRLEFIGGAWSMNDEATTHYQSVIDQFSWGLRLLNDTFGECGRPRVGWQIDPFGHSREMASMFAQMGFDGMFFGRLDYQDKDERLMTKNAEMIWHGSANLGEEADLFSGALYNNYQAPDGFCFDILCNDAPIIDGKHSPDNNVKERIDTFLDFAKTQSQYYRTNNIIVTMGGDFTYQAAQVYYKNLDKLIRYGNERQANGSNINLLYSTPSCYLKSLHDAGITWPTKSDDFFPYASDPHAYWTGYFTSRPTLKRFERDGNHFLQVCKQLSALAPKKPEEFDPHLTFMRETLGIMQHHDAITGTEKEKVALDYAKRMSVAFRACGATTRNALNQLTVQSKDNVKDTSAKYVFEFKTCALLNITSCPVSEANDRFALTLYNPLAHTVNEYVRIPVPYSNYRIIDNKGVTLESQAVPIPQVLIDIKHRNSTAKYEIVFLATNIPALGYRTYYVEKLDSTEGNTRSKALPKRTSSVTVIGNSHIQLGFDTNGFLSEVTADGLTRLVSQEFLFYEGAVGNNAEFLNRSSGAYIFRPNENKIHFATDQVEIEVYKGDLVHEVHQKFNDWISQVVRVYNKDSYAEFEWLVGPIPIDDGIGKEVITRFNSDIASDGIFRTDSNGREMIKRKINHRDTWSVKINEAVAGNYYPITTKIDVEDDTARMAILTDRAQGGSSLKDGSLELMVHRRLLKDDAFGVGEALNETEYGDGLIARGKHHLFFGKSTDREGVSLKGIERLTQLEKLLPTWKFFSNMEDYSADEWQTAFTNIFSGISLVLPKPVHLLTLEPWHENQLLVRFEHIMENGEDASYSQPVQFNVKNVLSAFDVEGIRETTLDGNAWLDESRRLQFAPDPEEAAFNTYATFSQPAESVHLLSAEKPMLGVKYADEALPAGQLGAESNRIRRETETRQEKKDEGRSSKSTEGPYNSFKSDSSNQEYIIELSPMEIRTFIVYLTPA
As shown below, each of these compounds has a reported IC50 value.
State the result as a value with its unit after it.

Recorded IC50, per entry:
Using the record for OC[C@H]1O[C@H](n2cc(-c3ccccc3)nn2)[C@@H](O)[C@@H](O)[C@@H]1O , report its IC50. 5000 µM

Then CS[C@@H]1[C@@H](N)[C@@H](O)[C@@H](O)[C@H]1O [Mannostatin A, reference compound] ? 3 µM

Then OC[C@H]1O[C@H](n2cc(Cc3ccccc3)nn2)[C@@H](O)[C@@H](O)[C@@H]1O ? 500 µM

Lab note: next compound to report on.
Using the record for OC[C@H]1O[C@H](n2cc(CCc3ccccc3)nn2)[C@@H](O)[C@@H](O)[C@@H]1O , report its IC50. 5000 µM

* * *

molecular target: dGMIIb (Drosophila melanogaster Co(II)-activated Golgi α-mannosidase IIb) (Drosophila melanogaster); test: Class II α-mannosidase inhibition assay; assay type: biochemical
Sequence (Q9VF33 31-1249): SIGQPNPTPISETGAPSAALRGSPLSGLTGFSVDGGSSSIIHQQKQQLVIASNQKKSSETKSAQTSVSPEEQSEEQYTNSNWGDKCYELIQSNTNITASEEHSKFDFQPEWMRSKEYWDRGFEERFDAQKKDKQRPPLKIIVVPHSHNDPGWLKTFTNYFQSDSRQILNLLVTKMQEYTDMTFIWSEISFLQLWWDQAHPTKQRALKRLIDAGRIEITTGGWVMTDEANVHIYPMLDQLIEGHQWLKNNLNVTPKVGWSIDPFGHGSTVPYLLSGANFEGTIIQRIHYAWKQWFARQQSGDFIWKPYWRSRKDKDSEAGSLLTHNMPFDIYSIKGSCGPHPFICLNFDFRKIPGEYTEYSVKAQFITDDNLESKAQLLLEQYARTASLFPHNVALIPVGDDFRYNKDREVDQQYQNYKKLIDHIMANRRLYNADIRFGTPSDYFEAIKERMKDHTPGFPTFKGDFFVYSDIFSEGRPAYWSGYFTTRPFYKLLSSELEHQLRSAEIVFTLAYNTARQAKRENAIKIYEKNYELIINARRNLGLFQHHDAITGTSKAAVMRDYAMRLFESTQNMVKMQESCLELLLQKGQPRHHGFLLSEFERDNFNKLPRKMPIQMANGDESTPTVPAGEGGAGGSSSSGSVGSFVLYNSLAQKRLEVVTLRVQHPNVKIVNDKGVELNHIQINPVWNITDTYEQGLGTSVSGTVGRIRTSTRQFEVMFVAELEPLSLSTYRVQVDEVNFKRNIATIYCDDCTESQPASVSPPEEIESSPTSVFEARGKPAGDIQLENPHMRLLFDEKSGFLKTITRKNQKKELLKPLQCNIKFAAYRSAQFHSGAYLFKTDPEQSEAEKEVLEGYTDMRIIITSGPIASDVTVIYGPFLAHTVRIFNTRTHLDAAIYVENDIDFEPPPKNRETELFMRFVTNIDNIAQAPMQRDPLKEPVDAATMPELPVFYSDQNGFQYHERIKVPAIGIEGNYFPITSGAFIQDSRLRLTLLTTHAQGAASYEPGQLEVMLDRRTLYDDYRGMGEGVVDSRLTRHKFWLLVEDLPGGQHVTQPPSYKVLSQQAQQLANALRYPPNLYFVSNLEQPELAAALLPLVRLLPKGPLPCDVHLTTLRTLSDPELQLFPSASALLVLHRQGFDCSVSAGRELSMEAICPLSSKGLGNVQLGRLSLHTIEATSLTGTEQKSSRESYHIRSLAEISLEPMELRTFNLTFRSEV
Quantity Measured: IC50 (mM)
Give your result in mM as a bare value.

Recorded IC50, per entry:
Using the record for OC[C@H]1O[C@H](n2cc(CCc3ccccc3)nn2)[C@@H](O)[C@@H](O)[C@@H]1O [Compound 8] , report its IC50. 6

Then OC[C@H]1O[C@H](n2cc(Cc3ccccc3)nn2)[C@@H](O)[C@@H](O)[C@@H]1O [Compound 7] ? 5

Further cases:
Using the record for CS[C@@H]1[C@@H](N)[C@@H](O)[C@@H](O)[C@H]1O [Mannostatin A, reference compound] , report its IC50. 0.00015

Then OC[C@H]1O[C@H](n2cc(-c3ccccc3)nn2)[C@@H](O)[C@@H](O)[C@@H]1O [Compound 6] ? 5

* * *

biological target: jack bean α-mannosidase (JBMan) (Canavalia ensiformis, UniProt C0HJB3); experiment: Jack bean α-mannosidase inhibition assay; format: biochemical
Sequence (C0HJB3 whole entry): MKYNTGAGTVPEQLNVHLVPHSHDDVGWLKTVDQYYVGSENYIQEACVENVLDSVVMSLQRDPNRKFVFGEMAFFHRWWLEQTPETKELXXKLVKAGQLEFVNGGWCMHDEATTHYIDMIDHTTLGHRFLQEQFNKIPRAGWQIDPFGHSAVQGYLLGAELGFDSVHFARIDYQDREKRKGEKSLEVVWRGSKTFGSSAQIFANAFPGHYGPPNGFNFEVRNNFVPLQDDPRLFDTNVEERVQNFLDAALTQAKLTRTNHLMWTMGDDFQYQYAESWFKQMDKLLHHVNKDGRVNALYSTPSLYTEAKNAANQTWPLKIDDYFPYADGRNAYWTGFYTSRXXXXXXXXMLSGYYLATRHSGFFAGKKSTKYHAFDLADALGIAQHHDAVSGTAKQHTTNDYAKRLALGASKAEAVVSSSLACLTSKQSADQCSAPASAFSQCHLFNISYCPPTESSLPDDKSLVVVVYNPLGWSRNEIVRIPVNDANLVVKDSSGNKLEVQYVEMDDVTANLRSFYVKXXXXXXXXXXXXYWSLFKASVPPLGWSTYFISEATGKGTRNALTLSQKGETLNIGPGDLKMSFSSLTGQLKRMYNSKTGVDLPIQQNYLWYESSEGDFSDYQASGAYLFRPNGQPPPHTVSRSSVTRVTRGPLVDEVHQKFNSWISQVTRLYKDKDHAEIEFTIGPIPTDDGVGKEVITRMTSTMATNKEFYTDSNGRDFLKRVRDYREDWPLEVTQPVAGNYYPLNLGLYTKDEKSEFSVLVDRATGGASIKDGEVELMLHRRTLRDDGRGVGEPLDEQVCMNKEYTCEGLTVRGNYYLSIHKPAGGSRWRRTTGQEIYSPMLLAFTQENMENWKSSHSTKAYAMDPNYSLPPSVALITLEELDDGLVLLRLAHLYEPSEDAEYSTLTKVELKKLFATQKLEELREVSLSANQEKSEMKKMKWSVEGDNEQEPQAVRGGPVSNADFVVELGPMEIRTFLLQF
As shown below, each of these compounds has a reported pIC50 value.
The quantity pIC50 is defined as the negative base-10 logarithm of the molar concentration.

Using the record for OC[C@H]1O[C@H](n2cc(CCc3ccccc3)nn2)[C@@H](O)[C@@H](O)[C@@H]1O , report its pIC50. 3.40

Then OC[C@H]1O[C@H](n2cc(-c3ccccc3)nn2)[C@@H](O)[C@@H](O)[C@@H]1O ? 3.40

Lab note: next compound to report on.
Using the record for OC[C@H]1O[C@H](n2cc(Cc3ccccc3)nn2)[C@@H](O)[C@@H](O)[C@@H]1O , report its pIC50. 2.96

* * *

Quick note: these are pIC50 numbers for system: Aspergillus saitoi α1,2-mannosidase (AspMan) (Aspergillus phoenicis)
Sequence (Q12563 22-513): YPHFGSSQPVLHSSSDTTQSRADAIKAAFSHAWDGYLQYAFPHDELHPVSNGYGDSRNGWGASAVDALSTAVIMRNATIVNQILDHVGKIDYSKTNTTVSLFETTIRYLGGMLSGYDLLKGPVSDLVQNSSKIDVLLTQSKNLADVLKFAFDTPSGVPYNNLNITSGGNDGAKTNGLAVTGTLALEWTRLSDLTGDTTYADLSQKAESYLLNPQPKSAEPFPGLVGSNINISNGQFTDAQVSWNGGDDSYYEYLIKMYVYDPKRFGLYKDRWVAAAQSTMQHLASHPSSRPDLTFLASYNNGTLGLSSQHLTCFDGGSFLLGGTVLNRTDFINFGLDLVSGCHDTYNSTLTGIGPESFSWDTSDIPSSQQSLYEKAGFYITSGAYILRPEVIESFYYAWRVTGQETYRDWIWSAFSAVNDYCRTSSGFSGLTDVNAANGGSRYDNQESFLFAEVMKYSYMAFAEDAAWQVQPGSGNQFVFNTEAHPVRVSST
The quantity pIC50 is defined as the negative base-10 logarithm of the molar concentration.

Recorded pIC50, per entry:
Using the record for OC[C@H]1O[C@H](n2cc(Cc3ccccc3)nn2)[C@@H](O)[C@@H](O)[C@@H]1O [Compound 7] , report its pIC50. 4.00

Then OC[C@H]1O[C@H](n2cc(-c3ccccc3)nn2)[C@@H](O)[C@@H](O)[C@@H]1O [Compound 6] ? 4.30

Further cases:
Using the record for OC[C@H]1O[C@H](n2cc(CCc3ccccc3)nn2)[C@@H](O)[C@@H](O)[C@@H]1O [Compound 8] , report its pIC50. 3.60

* * *

biological target: jack bean α-mannosidase (JBMan) (Canavalia ensiformis, UniProt C0HJB3); assay: Jack bean α-mannosidase inhibition assay; assay type: biochemical; conditions: read-out: IC50 JBMan; pNP-Manp substrate, pH 4.5
Quantity Measured: IC50 (µM)
Give your result in µM as a bare value.

Using the record for O=S(=O)(Cc1ccccc1)[C@H]1O[C@H](CO)[C@@H](O)[C@H](O)[C@@H]1O [Compound 9, benzyl α-D-mannopyranosyl sulfone] , report its IC50. 2000
